Molecular target: Beta-3 Adrenergic Receptor (Homo sapiens (Human), UniProt P13945)
Sequence (P13945 whole entry, species assumed): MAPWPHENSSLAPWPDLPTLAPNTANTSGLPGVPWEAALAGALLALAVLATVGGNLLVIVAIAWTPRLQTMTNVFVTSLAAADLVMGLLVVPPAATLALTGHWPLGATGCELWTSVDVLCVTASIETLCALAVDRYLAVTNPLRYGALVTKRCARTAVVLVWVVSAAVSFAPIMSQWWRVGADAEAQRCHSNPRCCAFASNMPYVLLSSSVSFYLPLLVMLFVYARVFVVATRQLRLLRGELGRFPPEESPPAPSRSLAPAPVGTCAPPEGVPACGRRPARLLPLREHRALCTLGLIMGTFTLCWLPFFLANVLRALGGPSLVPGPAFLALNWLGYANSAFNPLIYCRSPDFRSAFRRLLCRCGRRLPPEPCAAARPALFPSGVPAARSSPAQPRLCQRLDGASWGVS
Assay: HTRF cAMP antagonist assay (IC50 determination)
Conditions: CHO-K1 cells stably expressing recombinant receptor; antagonism of isoproterenol at EC90; cAMP readout
Method: HTRF cAMP assays were performed according to manufacturer's instructions (Cisbio, cAMP Dynamic 2 Assay Kit; #62AM4PEJ). CHO-K1 cells stably expressing recombinant receptor were harvested and suspended in warm PBS to make a 300,000 cells/mL stock. […] Compounds were dissolved and serially diluted (5-fold) in DMSO to generate a 10-point dose response stock. […] The EC90 for isoproterenol, a beta-adrenergic agonist, was determined in separate experiments using standard methods to measure agonist potencies. […]
property name: IC50 (nM)

Before answering, review these 2 worked examples.
* CS(=O)(=O)c1cccc(OC[C@@H](O)CNC2COC3(CCN(S(=O)(=O)c4cccc(Cl)c4)CC3)C2)c1 (stereo partly drawn) | 49.3
* CC(C)S(=O)(=O)c1cccc(OC[C@@H](O)CN[C@H]2COC3(CCN(S(=O)(=O)c4ccc5ncccc5c4)CC3)C2)c1 | 26.8

1: O=S(=O)(CF)c1cccc(OC[C@@H](O)CNC2COC3(CCN(S(=O)(=O)c4ccc5ccccc5c4)CC3)C2)c1 (stereo partly drawn)
2: O=S(=O)(c1cccc(-c2ccc(CN3CCC3)cc2)c1)N1CCC2(CC1)C[C@@H](NC[C@H](O)COc1cccc(S(=O)(=O)C3(CO)CC3)c1)CO2
3: N#CCS(=O)(=O)c1cccc(OC[C@@H](O)CNC2COC3(CCN(S(=O)(=O)c4ccc5ccccc5c4)CC3)C2)c1 (stereo partly drawn)
query: Reorder: IC50, max to min. Answer by listing the labels in the requested order.
result: 2, 3, 1

1: CCOc1ccc(-c2ccc(CCNC(C)=O)cc2)cc1S(=O)(=O)N1CCC2(CC1)C[C@@H](NC[C@H](O)COc1cccc(S(=O)(=O)C3(CO)CC3)c1)CO2
2: Cn1cc(-c2cncc(S(=O)(=O)N3CCC4(CC3)C[C@@H](NC[C@H](O)COc3cccc(S(=O)(=O)CCO)c3)CO4)c2)cn1
3: CC(C)Oc1ccc(-c2ccc(CN)cc2)cc1S(=O)(=O)N1CCC2(CC1)C[C@H](NC[C@H](O)COc1cccc(S(=O)(=O)C3CC3)c1)CO2
4: O=S(=O)(CCC(F)(F)F)c1cccc(OC[C@@H](O)CNC2COC3(CCN(S(=O)(=O)c4ccc5ccccc5c4)CC3)C2)c1 (stereo partly drawn)
query: Write the entries in order, lowest recorded IC50 first. Output spec: labels arranged per the requested ranking.
result: 4, 3, 2, 1

A: CCOc1ccc(-c2ccc(CN)cc2)cc1S(=O)(=O)N1CCC2(CC1)C[C@H](NC[C@H](O)COc1cccc(S(=O)(=O)CC(N)=O)c1)CO2
B: CS(=O)(=O)c1cccc(OC[C@@H](O)CNC2COC3(CCN(S(=O)(=O)c4ccc5ncccc5c4)CC3)C2)c1 (stereo partly drawn)
query: Larger number for IC50: A , or B ? I would appreciate it if you answered with the label of your choice.
result: A

1: O=S(=O)(CCO)c1cccc(OC[C@@H](O)CN[C@H]2COC3(CCN(S(=O)(=O)c4ccc5c(c4)CCCO5)CC3)C2)c1
2: CS(=O)(=O)c1cccc(OC[C@H](O)CN[C@@H]2COC3(CCN(S(=O)(=O)c4ccc5ccccc5c4)CC3)C2)c1
3: CCn1cc(-c2cccc(S(=O)(=O)N3CCC4(CC3)CC(NC[C@H](O)COc3cccc(S(C)(=O)=O)c3)CO4)c2)cn1 (stereo partly drawn)
4: CCS(=O)(=O)c1cccc(OC[C@@H](O)CNC2COC3(CCN(S(=O)(=O)c4ccc5ccccc5c4)CC3)C2)c1 (stereo partly drawn)
5: CC(F)S(=O)(=O)c1cccc(OC[C@@H](O)CN[C@H]2COC3(CCN(S(=O)(=O)c4cnc5ccccc5c4)CC3)C2)c1 (stereo partly drawn)
query: List the 5 entries from lowest IC50 to highest IC50 value. Respond with an ordered listing of the labels, as requested.
result: 4, 5, 3, 1, 2

P: Cc1c(S(=O)(=O)N2CCC3(CC2)C[C@@H](NC[C@H](O)COc2cccc(S(=O)(=O)C4CC4)c2)CO3)cnc2c1N(C)CCO2
Q: O=S(=O)(CCO)c1cccc(OC[C@@H](O)CN[C@H]2COC3(CCN(S(=O)(=O)c4ccc5c(c4)OCCC5)CC3)C2)c1
query: Which value of IC50 is greater, the one for P or the one for Q ? Give the chosen item's label as your response.
result: P

I: CN1CCOc2ccc(S(=O)(=O)N3CCC4(CC3)C[C@@H](NC[C@H](O)COc3cccc(S(=O)(=O)CCO)c3)CO4)cc21
II: O=S(=O)(c1cccc(-c2ccc(CNC3CCC3)cc2)c1)N1CCC2(CC1)C[C@@H](NC[C@H](O)COc1cccc(S(=O)(=O)C3(CO)CC3)c1)CO2
query: Given the listed items, does I or II have the lesser reported IC50? Let me know the label of the one you choose.
result: I
(I: 54.7 nM, II: 400 nM)

1: O=S(=O)(CCO)c1cccc(OC[C@@H](O)CN[C@H]2COC3(CCN(S(=O)(=O)c4cccc(-c5cccc(C(F)(F)F)n5)c4)CC3)C2)c1
2: CCOc1ccc(-c2ccc(CN)cc2)cc1S(=O)(=O)N1CCC2(CC1)C[C@@H](NC[C@H](O)COc1cccc(S(=O)(=O)C3(CO)CC3)c1)CO2
query: Identify the item whose IC50 is the smaller number: 1 or 2 Please indicate the selected item by its label.
result: 2
(2: 27.3 nM, 1: 48.8 nM)
